- measurement target: HiBiT-BRM fusion protein in stable HeLa cell line (Homo sapiens)
- Construct: expressed in transfected cells
- Sequence (P51531 whole entry, the tested form may be a part): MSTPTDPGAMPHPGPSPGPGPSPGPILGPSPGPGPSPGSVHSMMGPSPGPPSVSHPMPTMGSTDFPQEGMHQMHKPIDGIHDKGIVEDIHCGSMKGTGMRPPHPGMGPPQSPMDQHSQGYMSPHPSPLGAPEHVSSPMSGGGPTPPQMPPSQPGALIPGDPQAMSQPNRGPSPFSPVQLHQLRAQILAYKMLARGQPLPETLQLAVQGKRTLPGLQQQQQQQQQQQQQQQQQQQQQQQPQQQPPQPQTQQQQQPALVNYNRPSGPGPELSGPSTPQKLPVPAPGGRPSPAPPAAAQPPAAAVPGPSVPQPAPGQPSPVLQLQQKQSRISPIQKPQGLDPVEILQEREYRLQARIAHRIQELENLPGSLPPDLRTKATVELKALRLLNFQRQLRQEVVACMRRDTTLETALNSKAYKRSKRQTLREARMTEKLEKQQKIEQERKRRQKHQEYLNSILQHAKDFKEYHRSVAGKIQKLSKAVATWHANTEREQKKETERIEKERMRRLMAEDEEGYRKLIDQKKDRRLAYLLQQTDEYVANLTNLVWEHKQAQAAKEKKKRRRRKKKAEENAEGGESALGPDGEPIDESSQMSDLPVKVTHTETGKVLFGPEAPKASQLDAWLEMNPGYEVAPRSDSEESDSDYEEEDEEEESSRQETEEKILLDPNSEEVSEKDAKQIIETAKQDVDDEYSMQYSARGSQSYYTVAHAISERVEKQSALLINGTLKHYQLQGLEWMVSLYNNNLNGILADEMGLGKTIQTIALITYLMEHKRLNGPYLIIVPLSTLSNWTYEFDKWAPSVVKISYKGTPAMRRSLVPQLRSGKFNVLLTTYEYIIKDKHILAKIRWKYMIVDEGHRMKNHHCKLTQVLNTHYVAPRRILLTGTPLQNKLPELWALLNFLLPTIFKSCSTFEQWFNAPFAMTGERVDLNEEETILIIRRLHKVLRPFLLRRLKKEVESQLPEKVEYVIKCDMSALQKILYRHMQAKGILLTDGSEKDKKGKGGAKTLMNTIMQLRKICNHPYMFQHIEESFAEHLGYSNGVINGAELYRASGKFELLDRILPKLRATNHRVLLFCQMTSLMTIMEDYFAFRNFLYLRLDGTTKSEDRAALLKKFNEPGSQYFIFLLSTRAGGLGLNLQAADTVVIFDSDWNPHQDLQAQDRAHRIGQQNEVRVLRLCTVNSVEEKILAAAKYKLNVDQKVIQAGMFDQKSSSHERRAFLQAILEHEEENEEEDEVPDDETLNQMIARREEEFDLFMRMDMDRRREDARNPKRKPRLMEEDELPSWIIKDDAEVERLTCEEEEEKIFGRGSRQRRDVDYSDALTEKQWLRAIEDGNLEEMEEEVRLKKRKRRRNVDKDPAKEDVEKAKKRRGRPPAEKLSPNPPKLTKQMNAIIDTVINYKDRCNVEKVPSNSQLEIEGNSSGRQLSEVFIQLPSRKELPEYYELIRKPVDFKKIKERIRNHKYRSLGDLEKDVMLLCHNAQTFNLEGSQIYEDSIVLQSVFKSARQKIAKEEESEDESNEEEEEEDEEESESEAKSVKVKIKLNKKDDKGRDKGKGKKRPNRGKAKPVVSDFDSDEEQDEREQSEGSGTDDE
- assay: HiBiT-BRM cell-based degradation assay (Nano-Glo HiBiT Lytic Detection, 24 h)
- Parameters: scale not given here
- run conditions: HeLa HiBiT-BRM cells, read-out: BRM HiBit Degradation IC50
- Description: Procedure: A stable HeLa cell line expressing HiBiT-BRM was generated. On day 0, 5000 cells were seeded in 40 μL of media into each well of 384-well cell culture plates. […] The plates were shaken for 10 minutes at room temperature and the bioluminescence read using an EnVision plate reader (PerkinElmer). The degradation % was calculated using the following formula: % degradation=100%−100%×(Lumsample−LumLC)/(LumHC−LumLC). […]
Measured DC50, listed per entry for reference.

compound	measurement target	DC50
Cc1ncsc1-c1ccc([C@H](C)NC(=O)[C@@H]2C[C@@H](O)CN2C(=O)[C@@H](c2cc(-c3cnc(N4CC(c5ccc6nnc(-c7ccccc7O)cc6c5)C4)nc3)no2)C(C)C)cc1	HiBiT-BRM fusion protein in stable HeLa cell line (Homo sapiens)	< 0.01 µM
Cc1ncsc1-c1ccc([C@H](C)NC(=O)[C@@H]2C[C@@H](O)CN2C(=O)[C@@H](c2cc(N3CC4(C3)CN(c3cc5nnc(-c6ccccc6O)cc5cc3N(C)C)C4)no2)C(C)C)cc1	HiBiT-BRM fusion protein in stable HeLa cell line (Homo sapiens)	< 0.01 µM
Cc1ncsc1-c1ccc([C@H](C)NC(=O)[C@@H]2C[C@@H](O)CN2C(=O)C(C(C)C)n2cc(N3CCN(CC4CCN(c5ccc6nnc(-c7ccccc7O)cc6c5)CC4)CC3)nn2)cc1 (stereo partly shown)	HiBiT-BRM fusion protein in stable HeLa cell line (Homo sapiens)	< 0.01 µM
Cc1ncsc1-c1ccc([C@H](C)NC(=O)[C@@H]2C[C@@H](O)CN2C(=O)[C@H](C(C)C)n2cc(N3CC4(CC(c5ccc6cc(-c7ccccc7O)nnc6c5)C4)C3)nn2)cc1	HiBiT-BRM fusion protein in stable HeLa cell line (Homo sapiens)	< 0.01 µM
Cc1ncsc1-c1ccc([C@H](C)NC(=O)[C@@H]2C[C@@H](O)CN2C(=O)[C@H](c2cc(-c3cnc(N4CC[C@@H](c5ccc6cc(-c7ccccc7O)nnc6c5)C4)nc3)no2)C(C)C)cc1	HiBiT-BRM fusion protein in stable HeLa cell line (Homo sapiens)	> 0.1 µM
Cc1ncsc1-c1ccc([C@H](C)NC(=O)[C@@H]2C[C@@H](O)CN2C(=O)[C@@H](c2cc(N3CCC4(CCN(c5ccc6cc(-c7ccccc7O)nnc6c5)CC4)CC3)no2)C(C)C)cc1	HiBiT-BRM fusion protein in stable HeLa cell line (Homo sapiens)	< 0.01 µM
Cc1ncsc1-c1ccc([C@H](C)NC(=O)[C@@H]2C[C@@H](O)CN2C(=O)[C@@H](c2cc(N3CCC4(CC[C@H](c5ccc6nnc(-c7ccccc7O)cc6c5)C4)CC3)no2)C(C)C)cc1	HiBiT-BRM fusion protein in stable HeLa cell line (Homo sapiens)	< 0.01 µM
Cc1ncsc1-c1ccc([C@H](C)NC(=O)[C@@H]2C[C@@H](O)CN2C(=O)[C@@H](c2cc(N3CCC4(CC3)CN(c3ccc5cc(-c6ccccc6O)nnc5c3)CCN4C)no2)C(C)C)cc1	HiBiT-BRM fusion protein in stable HeLa cell line (Homo sapiens)	< 0.01 µM
Cc1ncsc1-c1ccc([C@H](C)NC(=O)[C@@H]2C[C@@H](O)CN2C(=O)[C@@H](c2cc(N3CCN(c4ccc5nnc(-c6ccccc6O)cc5c4)CC3)no2)C(C)C)cc1	HiBiT-BRM fusion protein in stable HeLa cell line (Homo sapiens)	< 0.01 µM
Cc1ncsc1-c1ccc([C@H](C)NC(=O)[C@@H]2C[C@@H](O)CN2C(=O)C(C(C)C)n2cc(N3CCN(CC4CCCN(c5ccc6cc(-c7ccccc7O)nnc6c5)C4)CC3)nn2)cc1 (stereo partly shown)	HiBiT-BRM fusion protein in stable HeLa cell line (Homo sapiens)	> 0.01 µM
